Assay: Stability of the compound in pH 7.4 phosphate buffered saline assessed as parent compound remaining at 5 uM
Assay type: physicochemical
Conditions: read-out: Stability
Measurement Label: remaining at 5 µM (%)
Could you give me the number in %? Just the number is fine.

// query Query remaining at 5 µM for CCCc1cc(C(=O)OC)c(NC(=O)C2CCN(C(C)=O)CC2)s1
// result 95

* * *

Target: UniProt Q9UBZ9
Experiment: Displacement of FAM-labelled polkappa-RIR peptide from recombinant human C-terminal Rev1 (1158 to 1251 residues) expressed in Escherichia coli BL21(DE3) after 1 hr by fluorescence polarization assay
Entries annotated with measured pKd
Scale explanation: pKd corresponds to minus log10 of a concentration expressed in moles per litre.

Examples with their reported pKd follow.
• CC(=O)C(C)n1c(CN2CCN(c3cccc(Cl)c3)CC2)nc2c1c(=O)n(C)c(=O)n2C (stereo not given) = 5.68
• CC(=O)N1CCC(C(=O)Nc2sc3c(c2C(=O)NC2CC2)CCCC3)CC1 = 4.58
• CCCc1cc(C(=O)OC)c(NC(=O)C2CCN(C(C)=O)CC2)s1 = 5.46
• CCc1ccc(NC(=O)CN2CCN(c3ccc(OC)cc3)CC2)cc1 = 5.44
• CCc1ccc(NC(=O)CN2CCN(c3ccccc3)CC2)cc1 = 4.31
• CC(=O)N1CCC(C(=O)Nc2sc3c(c2C(N)=O)CCC(C)C3)CC1 (stereo not given) = 4.90
• CC(C)(C)C(=O)N1CCN(c2ccc(NC(=O)c3cccnc3)cc2Cl)CC1 = 4.74
• CCCC1CCc2c(sc(NC(=O)C3CCN(C(C)=O)CC3)c2C(N)=O)C1 (stereo not given) = 5.02

// query Query pKd for CCc1cc(C(=O)OC)c(NC(=O)C2CCN(C(C)=O)CC2)s1
// result 4.63

// query Query pKd for N#Cc1ccc(NC(=O)CN2CCN(c3ccc(F)cc3)CC2)cc1
// result 3.96

* * *

Target: DNA repair protein REV1 (Homo sapiens, UniProt Q9UBZ9)
Assay: Displacement of FAM-labelled polkappa-RIR peptide from recombinant human C-terminal Rev1 (1158 to 1251 residues) expressed in Escherichia coli BL21(DE3) after 1 hr by fluorescence polarization assay
Measurement Label: pKd
Scale explanation: pKd corresponds to minus log10 of a concentration expressed in moles per litre.

Examples with their reported pKd follow.
- Cc1cccc(N2CCN(CC(=O)Nc3ccc(F)cc3)CC2)c1C: 4.91
- COc1ccc(OC)c(-c2csc(N3CCN(C(=O)c4ccco4)CC3)n2)c1: 5.43
- O=C(CN1CCN(c2ccc(F)cc2)CC1)Nc1ccccc1: 4.37
- CCCCc1ccc(-n2nnc(C(=O)N(C)C3CCS(=O)(=O)C3)c2C)cc1 (configuration not stated): 5.44
- CCCc1cc(C(=O)OCC)c(NC(=O)C2CCN(C(C)=O)CC2)s1: 5.11
- CCc1ccc(NC(=O)CN2CCN(c3ccc(F)cc3)CC2)cc1: 5.19
- Cc1ccc(C(=O)N2CCN(c3ccccc3)CC2)cc1S(=O)(=O)N1CCOCC1: 5.54
- COC(=O)c1cc(C)sc1NC(=O)C1CCN(C(C)=O)CC1: 5.09

Consider now this further compound.
// query Query pKd for CCS(=O)(=O)N(C)c1ccc(C(=O)N2CCN(c3ccccc3OC)CC2)cc1
// result 5.37

* * *

Assay: Solubility of the compound in pH 7.4 phosphate buffered saline
Measurement Label: solubility (µM)
Could you give me the number in µM? Just the number is fine.

// query Query solubility for CCCc1cc(C(=O)OC)c(NC(=O)C2CCN(C(C)=O)CC2)s1
// result 63.3

* * *

Entries annotated with measured GI50
Test system: U2OS
Assay: Potentiation of cisplatin-induced cytotoxicity in cisplatin-resistant human U2OS cells assessed as cisplatin GI50 at 25 uM after 72 hrs by MTS assay (reference value: 23.9 +/- 1.9 uM)
Format: functional
Could you give me the number in µM? Just the number is fine.

// query Query GI50 for COc1ccc(OC)c(-c2csc(N3CCN(C(=O)c4ccco4)CC3)n2)c1
// result 11.9

// query Query GI50 for COc1cc2c(cc1OC)CN(Cc1ccc(OCc3ccccc3)cc1)CC2
// result 13.4

* * *

Target: DNA repair protein REV1 (Homo sapiens) (UniProt Q9UBZ9)
Sequence (whole entry): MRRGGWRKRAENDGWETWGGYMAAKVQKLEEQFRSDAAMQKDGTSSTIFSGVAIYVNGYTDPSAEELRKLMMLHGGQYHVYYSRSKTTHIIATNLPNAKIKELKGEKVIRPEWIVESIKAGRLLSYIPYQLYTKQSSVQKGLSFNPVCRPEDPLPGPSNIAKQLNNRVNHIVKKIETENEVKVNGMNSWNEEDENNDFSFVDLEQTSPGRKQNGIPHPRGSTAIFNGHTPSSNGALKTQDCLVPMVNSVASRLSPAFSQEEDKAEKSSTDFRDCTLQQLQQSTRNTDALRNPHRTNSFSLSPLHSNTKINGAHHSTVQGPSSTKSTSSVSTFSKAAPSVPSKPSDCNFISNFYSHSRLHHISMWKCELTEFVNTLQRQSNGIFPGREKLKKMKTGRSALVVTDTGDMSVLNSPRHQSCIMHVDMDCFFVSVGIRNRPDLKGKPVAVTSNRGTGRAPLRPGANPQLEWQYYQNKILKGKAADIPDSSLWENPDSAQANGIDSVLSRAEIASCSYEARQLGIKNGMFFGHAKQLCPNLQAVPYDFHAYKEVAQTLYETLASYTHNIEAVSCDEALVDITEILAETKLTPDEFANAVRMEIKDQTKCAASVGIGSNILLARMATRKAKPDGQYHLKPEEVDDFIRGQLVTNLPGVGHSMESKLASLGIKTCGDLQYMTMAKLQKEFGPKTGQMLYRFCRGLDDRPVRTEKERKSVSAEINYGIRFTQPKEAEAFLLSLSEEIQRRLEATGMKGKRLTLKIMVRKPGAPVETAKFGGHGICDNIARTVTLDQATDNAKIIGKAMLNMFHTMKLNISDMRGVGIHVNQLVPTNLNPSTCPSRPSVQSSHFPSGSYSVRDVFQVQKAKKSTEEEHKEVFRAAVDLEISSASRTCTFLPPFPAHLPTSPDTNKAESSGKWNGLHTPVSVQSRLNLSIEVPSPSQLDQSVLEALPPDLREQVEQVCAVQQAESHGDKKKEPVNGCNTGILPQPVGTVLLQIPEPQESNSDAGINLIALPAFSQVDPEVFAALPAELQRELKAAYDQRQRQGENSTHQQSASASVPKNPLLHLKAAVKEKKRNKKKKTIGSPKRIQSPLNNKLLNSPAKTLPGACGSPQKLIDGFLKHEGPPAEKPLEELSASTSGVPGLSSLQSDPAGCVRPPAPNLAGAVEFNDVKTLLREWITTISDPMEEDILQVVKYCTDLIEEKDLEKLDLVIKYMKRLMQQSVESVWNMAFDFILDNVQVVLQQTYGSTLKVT
Assay: Displacement of FAM-labelled polkappa-RIR peptide from recombinant human C-terminal Rev1 (1158 to 1251 residues) expressed in Escherichia coli BL21(DE3) at 10 uM after 1 hr by fluorescence polarization assay relative to control
Entries annotated with measured inhibition

// query Query inhibition for CCCC1CCc2c(sc(NC(=O)C3CCN(C(C)=O)CC3)c2C(N)=O)C1 (stereo unspecified)
// result > 85%

// query Query inhibition for O=C(CN1CCN(c2ccc(F)cc2)CC1)Nc1ccccc1
// result > 85%

// query Query inhibition for COc1ccc(OC)c(-c2csc(N3CCN(C(=O)c4ccco4)CC3)n2)c1
// result > 85%

// query Query inhibition for CCCc1cc(C(=O)OC)c(NC(=O)C2CCN(C(C)=O)CC2)s1
// result > 85%

// query Query inhibition for CCc1cc(C(=O)OC)c(NC(=O)C2CCN(C(C)=O)CC2)s1
// result > 85%

// query Query inhibition for CCc1ccc(NC(=O)CN2CCN(c3ccc(OC)cc3)CC2)cc1
// result > 85%

* * *

Biological target: DNA repair protein REV1 (Homo sapiens, UniProt Q9UBZ9)
Assay: Displacement of FAM-labelled polkappa-RIR peptide from recombinant human C-terminal Rev1 (1158 to 1251 residues) expressed in Escherichia coli BL21(DE3) after 1 hr by fluorescence polarization assay
We label by threshold. Values of IC50 strictly beneath 6 µM are Yes. Values of 6 µM and up are No.

Take a look at these entries with their results.
• CCS(=O)(=O)N(C)c1ccc(C(=O)N2CCN(c3ccccc3OC)CC2)cc1 = Yes
• O=C(CN1CCN(c2ccc(F)cc2)CC1)Nc1ccccc1 = No
• Cc1cccc(N2CCN(CC(=O)Nc3ccc(F)cc3)CC2)c1C = No
• CCc1ccc(NC(=O)CN2CCN(c3ccc(F)cc3)CC2)cc1 = Yes
• COc1cc2c(cc1OC)CN(Cc1ccc(OCc3ccccc3)cc1)CC2 = No

// query Consider CCc1ccc(NC(=O)CN2CCN(c3ccccc3)CC2)cc1 . Does its IC50 lie strictly below 6 µM?
// result No

// query Consider COc1ccc(OC)c(-c2csc(N3CCN(C(=O)c4ccco4)CC3)n2)c1 . Does its IC50 lie strictly below 6 µM?
// result No

// query Consider Cc1ccc(C(=O)N2CCN(c3ccccc3)CC2)cc1S(=O)(=O)N1CCOCC1 . Does its IC50 lie strictly below 6 µM?
// result Yes

// query Consider CCc1ccc(NC(=O)CN2CCN(c3ccc(OC)cc3)CC2)cc1 . Does its IC50 lie strictly below 6 µM?
// result Yes

// query Consider CC(=O)N1CCC(C(=O)Nc2sc3c(c2C(N)=O)CCC(C)C3)CC1 (stereo unspecified) . Does its IC50 lie strictly below 6 µM?
// result No

// query Consider CCc1cc(C(=O)OC)c(NC(=O)C2CCN(C(C)=O)CC2)s1 . Does its IC50 lie strictly below 6 µM?
// result No

// query Consider CC(=O)N1CCC(C(=O)Nc2sc3c(c2C(=O)NC2CC2)CCC(C)C3)CC1 (stereo unspecified) . Does its IC50 lie strictly below 6 µM?
// result Yes

// query Consider CC(=O)C(C)n1c(CN2CCN(c3cccc(Cl)c3)CC2)nc2c1c(=O)n(C)c(=O)n2C (stereo unspecified) . Does its IC50 lie strictly below 6 µM?
// result Yes

// query Consider CCCc1cc(C(=O)OC)c(NC(=O)C2CCN(C(C)=O)CC2)s1 . Does its IC50 lie strictly below 6 µM?
// result Yes
